Biological target: E-selectin (Homo sapiens)
Sequence (P16581 whole entry, the tested form may be a part): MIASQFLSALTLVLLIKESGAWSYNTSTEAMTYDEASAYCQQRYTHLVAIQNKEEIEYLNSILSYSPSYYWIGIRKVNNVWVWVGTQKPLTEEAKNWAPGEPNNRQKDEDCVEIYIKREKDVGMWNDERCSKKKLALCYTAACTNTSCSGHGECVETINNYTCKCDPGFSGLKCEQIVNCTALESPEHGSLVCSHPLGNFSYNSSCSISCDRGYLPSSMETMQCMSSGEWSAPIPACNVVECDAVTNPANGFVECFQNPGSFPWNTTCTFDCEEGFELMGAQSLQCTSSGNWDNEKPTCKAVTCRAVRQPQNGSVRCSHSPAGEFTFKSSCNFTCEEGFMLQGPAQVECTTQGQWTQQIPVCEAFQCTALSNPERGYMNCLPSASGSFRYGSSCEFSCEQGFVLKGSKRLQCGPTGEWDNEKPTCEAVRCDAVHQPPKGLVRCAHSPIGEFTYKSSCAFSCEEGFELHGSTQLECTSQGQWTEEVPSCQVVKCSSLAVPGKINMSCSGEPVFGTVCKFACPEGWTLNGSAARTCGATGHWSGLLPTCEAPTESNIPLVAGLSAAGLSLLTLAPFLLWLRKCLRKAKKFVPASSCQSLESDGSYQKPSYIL
Assay: Compound was tested for inhibition of HL60 cell adhesion to recombinant Selectin E IgG fusion protein obtained from transfected COS cells
readoutType: IC50 (µM)
Response body: numeric value in µM, unit text excluded.

Example entries begin here.
{"columns": ["structureSmiles", "readoutType", "outputUnit", "resultValue"],
 "data": [
  ["CC(=O)N[C@@H]1[C@H](OCCCCCCNC(=O)[C@H]2CC[C@H](CN3C(=O)C=CC3=O)CC2)O[C@@H](CO)[C@@H](O[C@@H]2O[C@@H](CO)[C@H](O)[C@H](O[C@]3(C(=O)O)C[C@@H](O)[C@@H](NC(C)=O)[C@H]([C@H](O)[C@H](O)CO)O3)[C@@H]2O)[C@@H]1O[C@@H]1O[C@@H](C)[C@@H](O)[C@H](O)[C@@H]1O", "IC50", "µM", 280],
  ["CC(=O)N[C@@H]1[C@H](OCCCCCCNC(=O)CCC(=O)O)O[C@@H](CO)[C@@H](O[C@@H]2O[C@@H](CO)[C@H](O)[C@H](O[C@]3(C(=O)O)C[C@@H](O)[C@@H](NC(C)=O)[C@H]([C@H](O)[C@H](O)CO)O3)[C@@H]2O)[C@@H]1O[C@@H]1O[C@@H](C)[C@@H](O)[C@H](O)[C@@H]1O", "IC50", "µM", 1150],
  ["CC(=O)N[C@H]1[C@H]([C@H](O)[C@H](O)CO)O[C@@](O[C@@H]2[C@H](O)[C@H](O[C@H]3[C@H](O[C@@H]4O[C@@H](C)[C@@H](O)[C@H](O)[C@@H]4O)[C@H](NC(C)=O)[C@H](NC(=O)[C@H](C)NC(=O)[C@@H]4CCCN4C(=O)CNC(=O)CNC(=O)[C@@H]4CCCN4C(=O)CN)O[C@H]3CO)O[C@@H](CO)[C@@H]2O)(C(=O)O)C[C@H]1O", "IC50", "µM", 5000],
  ["CC(=O)N[C@@H]1[C@H](OCCCCCCN)O[C@@H](CO)[C@@H](O[C@@H]2O[C@@H](CO)[C@H](O)[C@H](O[C@]3(C(=O)O)C[C@@H](O)[C@@H](NC(C)=O)[C@H]([C@H](O)[C@H](O)CO)O3)[C@@H]2O)[C@@H]1O[C@@H]1O[C@@H](C)[C@@H](O)[C@H](O)[C@@H]1O", "IC50", "µM", 1000],
  ["CC(=O)N[C@@H]1[C@H](OCCCCCCNC(=O)CCCC[C@@H]2SC[C@@H]3NC(=O)N[C@@H]32)O[C@@H](CO)[C@@H](O[C@@H]2O[C@@H](CO)[C@H](O)[C@H](O[C@]3(C(=O)O)C[C@@H](O)[C@@H](NC(C)=O)[C@H]([C@H](O)[C@H](O)CO)O3)[C@@H]2O)[C@@H]1O[C@@H]1O[C@@H](C)[C@@H](O)[C@H](O)[C@@H]1O", "IC50", "µM", 590]
]}

Now examine the next entry.
### Prompt Returns the measured IC50 for the input compound. Input: "CC(=O)N[C@@H]1[C@H](OCCCCCC/N=C(S)/N=C2\C=CC(=C3c4ccc(O)cc4Oc4cc(O)ccc43)C(C(=O)O)=C2)O[C@@H](CO)[C@@H](O[C@@H]2O[C@@H](CO)[C@H](O)[C@H](O[C@]3(C(=O)O)C[C@@H](O)[C@@H](NC(C)=O)[C@H]([C@H](O)[C@H](O)CO)O3)[C@@H]2O)[C@@H]1O[C@@H]1O[C@@H](C)[C@@H](O)[C@H](O)[C@@H]1O"
### Response 650
